# system-tested: CBP-bromodomain/BRD9 ZsGreen fusion protein (Homo sapiens, UniProt Q92793)
# Sequence (Q92793 1085-1192): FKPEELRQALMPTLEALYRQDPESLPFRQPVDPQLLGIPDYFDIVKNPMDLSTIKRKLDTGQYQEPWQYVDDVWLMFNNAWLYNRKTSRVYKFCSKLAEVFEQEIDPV
# Sequence (Q9H8M2 with tags, fused parts or gaps partner): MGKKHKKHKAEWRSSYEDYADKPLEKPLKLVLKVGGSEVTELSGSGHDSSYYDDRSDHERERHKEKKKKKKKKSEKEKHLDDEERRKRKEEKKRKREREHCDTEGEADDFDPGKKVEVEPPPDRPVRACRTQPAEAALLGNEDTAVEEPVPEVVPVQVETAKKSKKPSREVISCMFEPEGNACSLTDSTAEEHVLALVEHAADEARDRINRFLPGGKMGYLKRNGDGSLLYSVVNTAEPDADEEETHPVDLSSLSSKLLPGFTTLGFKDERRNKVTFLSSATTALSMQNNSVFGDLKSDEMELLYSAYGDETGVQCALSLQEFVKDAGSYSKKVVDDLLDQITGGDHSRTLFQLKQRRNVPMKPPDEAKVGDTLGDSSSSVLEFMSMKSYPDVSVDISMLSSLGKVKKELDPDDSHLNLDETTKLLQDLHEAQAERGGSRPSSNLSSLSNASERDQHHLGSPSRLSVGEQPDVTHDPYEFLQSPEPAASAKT
# test-description: cell-based
readout-type: EC50
Could you give the number and then its unit, please?

Ask: Short answer please: EC50, CBP-bromodomain/BRD9 ZsGreen fusion protein (Homo sapiens, UniProt Q92793), entry CCC(=O)N1CCOc2c(cc(-c3ccc(OC)c(OC)c3)cc2OC[C@H]2CCCN(C)C2)C1
Result: 1700 nM

---

# system-tested: CBP bromodomain (amino acids 1082–1197) (Homo sapiens, UniProt Q92793)
# Construct: His-Flag-tagged CBP bromodomain (amino acids 1082–1197)
# Sequence (Q92793 1082-1197): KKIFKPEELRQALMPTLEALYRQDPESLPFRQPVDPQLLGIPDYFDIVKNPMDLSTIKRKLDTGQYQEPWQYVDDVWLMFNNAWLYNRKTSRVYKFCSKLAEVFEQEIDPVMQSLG
# test-description: AlphaLISA, acetylated peptide binding to CBP bromodomain
readout-type: pIC50
Just so you know, pIC50 here is -log10 of the concentration in molar units; reply with that number alone.

Ask: What value of pIC50 has been reported for the following molecule? CCC(=O)N1CCOc2c(cc(-c3ccc(OC)c(OC)c3)cc2OC[C@H]2CCCN(C)C2)C1 [I-CBP112]
Result: 6.72

Reference for the values: paper PMC4775225
